ASSAY_TARGET: T1, human PCSK9 (proprotein convertase subtilisin kexin type 9) (human, UniProt Q8NBP7 31-692)
T1 construct: immobilized directly (ProteOn), biotinylated (Octet) or in solution, according to the assay; also called hPCSK9; PCSK9-AF647 (labelled form)
PROCEDURE_TEXT: PCSK9:EGFA FRET, competitor EGFA peptide
MEASUREMENT_TYPE: EC50 (nM)

Take a look at these entries with their results.
BINDER	EC50, nM
2381G03 (designed binder) MGVSDVPRDLEVVAATPTSLLISWEPFSRLPGGGEYYRITYGETGGNSPLQQFTVPGSKGTATISGLKPGVDYTITVYAVEFPYAHSGYYHRPISINYRTEIDKPSQHHHHHH	3.4
2451B02 (designed binder) MGVSDVPRDLEVVAATPTSLLISWDAPAAAYGYYRITYGETGGNSPVQEFTVPVSKGTATISGLKPGVDYTITVYAVEFDYPGSGYYHRPISINYRTEIDKPSQHHHHHH	5.3

A: 2451B06 (designed binder) MGVSDVPRDLEVVAATPTSLLISWDAPADGGYGYYRITYGETGGNSPVQEFTVPVSKGTATISGLKPGVDYTITVYAVEFDFPGAGYYHRPISINYRTEIDKPSQHHHHHH
B: 2451C06 (designed binder) MGVSDVPRDLEVVAATPTSLLISWDAPAGAASYGYYRITYGETGGNSPVQEFTVPVSKGTATISGLKPGVDYTITVYAVEFPFPGAGYYHRPISINYRTEIDKPSQHHHHHH
Which one would you say has the larger EC50 value: A , or B ? Let me know the label of the one you choose.
A
(A: 4.5 nM, B: 1.2 nM)
